The measurements presented in this section are drawn from the supplement of paper PMC11451515.

- Tested on: SEM cells
- Protocol Description: AUC of viability dose-response curve (% viability x log10 dose units); higher = less sensitive
- Reported Conditions: RPMI 5 mM glucose + 10% dialyzed FBS; 48 h
One threshold, 400, splits the recorded AUC of viability dose-response curve values: lower ones are 1, equal or higher ones are 0.

>  <Molecule>
C[C@@H](Oc1cc(-n2cnc3ccc(CN4CCN(C)CC4)cc32)sc1C(N)=O)c1ccccc1C(F)(F)F

>  <Cat>
1

$$$$
>  <Molecule>
Cc1cnc(Nc2ccc(OCCN3CCCC3)cc2)nc1Nc1cccc([S+](=O)([O-])NC(C)(C)C)c1

>  <Cat>
0

$$$$
>  <Molecule>
C[C@H]([C@H]1C\C(=C(CO)/C(=O)O1)C)[C@H]2CC[C@H]3[C@@H]4C[C@H]5O[C@]56[C@@H](O)\C=C/C(=O)[C@]6(C)[C@H]4CC[C@]23C

>  <Cat>
1

$$$$
>  <Molecule>
CC1(C)S[C@H]2[C@H](NC(=O)[C@@H](N)C3=CC=C(O)C=C3)C(=O)[N@]2[C@H]1C(O)=O

>  <Cat>
0

$$$$
>  <Molecule>
CNC(=O)c1cc(Oc2ccc(NC(=O)Nc3cc(C(C)(C)C)nn3-c3ccc4ncccc4c3)c(F)c2)ccn1

>  <Cat>
1

$$$$
>  <Molecule>
COc1ccc2cccc(CCNC(C)=O)c2c1

>  <Cat>
0

$$$$
>  <Molecule>
CCCCOc1ccc(C(=O)Nc2ccc(F)cc2F)cc1

>  <Cat>
1

$$$$
>  <Molecule>
COc1ccc([C@@H]2CNC(=O)C2)cc1OC1CCCC1

>  <Cat>
0

$$$$
>  <Molecule>
CC(C)[C@H](CO)Nc1nc(Nc2ccc(C(=O)O)c(Cl)c2)c2ncn(C(C)C)c2n1

>  <Cat>
0

$$$$
>  <Molecule>
Cc1c(OCC(F)(F)F)ccnc1C[S+]([O-])c1nc2ccccc2[nH]1 (stereo not drawn)

>  <Cat>
0

$$$$
>  <Molecule>
C/C=C(/C(=C/C)c1ccc(O)cc1)c1ccc(O)cc1

>  <Cat>
0

$$$$

---

Entries and their cell viability values follow.
- Test system: NOMO1
- Protocol Description: cell viability relative to DMSO control; higher = less cytotoxic
- Reported Conditions: RPMI 5 mM glucose + 10% FBS; 48 h; 0.0211 µM

>  <Structure Smiles String>
O=C1c2cccc(O)c2C(=O)c2c(O)cc(CO)cc21

>  <Unit Abbrev>
%

>  <cell viability>
91.9

$$$$
>  <Structure Smiles String>
COc1ccc(Cn2ccc3ccc(C(=O)NO)cc32)cc1

>  <Unit Abbrev>
%

>  <cell viability>
128

$$$$
>  <Structure Smiles String>
C=C1C[C@@]2(O)O[C@@]3(C[C@H]2C(C)C)[C@@H](C)CC[C@@H]13

>  <Unit Abbrev>
%

>  <cell viability>
126

$$$$

---

- Tested on: NOMO1
- Protocol Description: cell viability relative to DMSO control; higher = less cytotoxic
- Reported Conditions: RPMI 5 mM glucose + 10% FBS; 48 h; 0.00702 µM

>  <Compound>
CC(C)c1ccc2oc3nc(N)c(C(=O)O)cc3c(=O)c2c1

>  <System>
NOMO1

>  <Unit Abbrev>
%

>  <cell viability>
128

$$$$
>  <Compound>
O=C1[O][Pt]2([NH]C3CCCCC3[NH]2)[O]C1=O (centres undefined)

>  <System>
NOMO1

>  <Unit Abbrev>
%

>  <cell viability>
120

$$$$
>  <Compound>
CC(C)(O)CNc1nc(Nc2ccnc(C(F)(F)F)c2)nc(-c2cccc(C(F)(F)F)n2)n1

>  <System>
NOMO1

>  <Unit Abbrev>
%

>  <cell viability>
102

$$$$
>  <Compound>
COc1cc2nc(-c3ccc(N4CCN(C)CC4)cc3)nc(NCCN3CCOCC3)c2cc1OC

>  <System>
NOMO1

>  <Unit Abbrev>
%

>  <cell viability>
99

$$$$
>  <Compound>
CCc1cc(/C(C)=N/OCc2ccc(C3CCCCC3)c(C(F)(F)F)c2)ccc1CN1CC(C(=O)O)C1

>  <System>
NOMO1

>  <Unit Abbrev>
%

>  <cell viability>
104

$$$$
>  <Compound>
NC\1=N\C(=O)N(\C=N1)[C@H]2C[C@H](O)[C@@H](CO)O2

>  <System>
NOMO1

>  <Unit Abbrev>
%

>  <cell viability>
89.6

$$$$
>  <Compound>
CCCCc1oc2ccc(NS(C)(=O)=O)cc2c1C(=O)c1ccc(OCCCN(CCCC)CCCC)cc1

>  <System>
NOMO1

>  <Unit Abbrev>
%

>  <cell viability>
103

$$$$
>  <Compound>
O=C(NC1CC1)c1cccc(-c2ccc3c(NC(=O)C4CC4)n[nH]c3c2)c1

>  <System>
NOMO1

>  <Unit Abbrev>
%

>  <cell viability>
122

$$$$
>  <Compound>
C[Se]CCC(N)C(=O)O (centres undefined)

>  <System>
NOMO1

>  <Unit Abbrev>
%

>  <cell viability>
97.2

$$$$
